# Tested on: CCRF-CEM leukemia
# test_method_notes: NCI-60 one-dose screen, 48 h (100 = growth as untreated, 0 = no growth, -100 = all killed)
# experimental_parameters: 10 µM unless noted
This is part of a sample that, as a whole, favours compounds with a hit. Of some 83,000 tested, about 20% had one in any assay.
Quick list: growth per entry.
Use % as the unit, but write only the number.

# count of solved cases: 5
COC(=O)C1OC(Oc2ccc(N(CCCl)CCCl)cc2)C(OC(C)=O)C(OC(C)=O)C1OC(C)=O (stereo not given)    37.2
CCOC(=O)[C@@H](C)C[C@H](Cc1ccccc1)NC(=O)c1csc([C@@H](C[C@H](C(C)C)N(C)C(=O)[C@@H](NC(=O)[C@H]2C[C@H](O)CCN2C)C(C)C)OC(C)=O)n1    4.67
CCn1cnc2c(Nc3cccc(Cl)c3)nc(N[C@@H]3CCCC[C@@H]3N)nc21    2.54
COc1ccc(/C=C\c2cc(OC)c(OC)c(OC)c2)c(NS(=O)(=O)c2ccc(F)cc2)c1O    17.4
COc1cccc2c1c(C(=O)c1ccco1)cn2Cc1ccc(F)cc1    177

Switching to the query record.
Enquiry: Observed growth on CCRF-CEM leukemia for O=P1(NCCCl)OCCCN1CCCl (stereo not given) , please.
Return: 99.1

* * *

# Test system: ACHN renal
# test_method_notes: NCI-60 one-dose screen, 48 h
# experimental_parameters: 10 µM unless noted
Compounds without any hit were thinned out: in the full panel of roughly 83,000, 20% have a hit. Calls of active or inactive are those of the source. Rule for the calls: active = growth percent below 10; inactive = the rest.
# output must be one of label 1 = active, label 0 = inactive

Solved entries (count: 5):
CCCC(=O)O[C@@H]1C[C@H]2C[C@@H](O[C@@H]3O[C@@H](C)[C@@H](O)[C@@H](O)[C@H]3OC)C[C@@H](C[C@@H](C)/C=C/C=C\C[C@@H]3O[C@@H](C[C@@H]3C)[C@@H](O)C[C@H]3C[C@@]1(O)C(=O)O3)O2    label 0
C[C@]12CC[C@H]3[C@@H](C[C@@H]4SC(Nc5ccccc5)=N[C@@]45CC(O)CC[C@]35C)[C@@H]1CCC2O (some centres undefined)    label 0
O=NN1CCCc2cccc(O)c21    label 0
Cc1ccc(N2COOC3(OOC2)C2CC4CC(C2)CC3C4)cc1    label 0
Cc1cc(N(CCCl)CCCl)ccc1C=Nc1ccccc1-c1ccccc1    label 0

Enquiry: What did the test return for CCn1cnc2c(Nc3cccc(Cl)c3)nc(N[C@@H]3CCCC[C@@H]3N)nc21 ?
Return: label 1

Enquiry: Which outcome did this test record for the molecule O=C(Nc1ccc(Cl)cc1)Nc1nccs1 ?
Return: label 0

Enquiry: Look up the recorded call for O=C1C(=Cc2cn(Cc3ccccc3)c3ccccc23)C(=O)N(Cc2ccccc2)C(=O)N1Cc1ccccc1 in this test.
Return: label 0

Enquiry: Hi team, can someone confirm the assay call for CC(=O)Nc1ccc(NC(=O)c2ccc([As](O)O)cc2)cc1 ?
Return: label 0

* * *

# System: RPMI-8226 leukemia
# test_method_notes: NCI-60 one-dose screen, 48 h (100 = growth as untreated, 0 = no growth, -100 = all killed)
# experimental_parameters: 10 µM unless noted
# Procedure: Growth inhibition of the RPMI-8226 human tumor cell line is measured as a screen for anti-cancer activity. Cells are grown in 96 well plates and exposed to the test compound for 48 hours. Compounds are tested at a single concentration, which is 10^-5 M for most compounds. The reported endpoint is percent growth (GI% or GIPRCNT), where numbers from 0 - 100% represent growth inhibition, and numbers from -100% - 0 represent cell death. For example, a value of 40 represents 60% growth inhibition. […]
About 83,000 compounds went through this panel and 20% of them were active in at least one assay; those are over-represented in the sample as a whole. Active and inactive are the calls of the source. Rule for the calls: active = growth percent below 10; inactive = the rest.
measurement_kind: growth

Field: example entries. Status: answers known.
NC1CC2CCCCC2CC1(O)c1ccccc1 (stereo not drawn)    93.6% (inactive)
Nc1ccc(OCCNS(=O)(=O)c2cccc(S(=O)(=O)F)c2)c(Cl)c1    80.4% (inactive)
CCN(CC)CCOC(=O)C(OC(C)C)(c1ccccc1)c1ccccc1    102% (inactive)

Enquiry: Entry under review: O=C([O][Hg][CH2]C1OCCOC1[CH2][Hg][O]C(=O)c1ccccc1)c1ccccc1 (stereo not drawn) . Reported growth?
Return: 12.3% (inactive)

Enquiry: Quick one: growth of C/C=C(\C)C(=O)O[C@@H]1C(O)[C@H]2OC(COC(=O)CCC(=O)CCCCCC[C@H](CCCCC)O[C@@H]3OC(C)[C@H](OC(C)=O)C(O)[C@H]3O2)[C@H]1OC(=O)/C=C/c1ccccc1 (stereo partly drawn) ?
Return: 2.87% (active)

Enquiry: Consider the compound CC(=O)C(c1c(O)c2ccccc2oc1=O)c1cc(=O)oc2c1ccc1ccccc12 (stereo not drawn) and give its measured growth.
Return: 94% (inactive)

Enquiry: Which growth is listed for COc1ccc([As]=[As]c2ccc(OC)c(NCS(=O)(=O)O)c2)cc1NCS(=O)(=O)O (stereo not drawn) ?
Return: -13% (active)

Enquiry: Which growth is listed for Cc1cc(C)c(CBr)c(C)c1 ?
Return: 100% (inactive)

Enquiry: Return reported growth; argument: CC(=O)O[C@H](C[C@H](C(C)C)N(C)C(=O)[C@@H](NC(=O)[C@H]1CCCCN1C)C(C)C)c1nc(C(=O)N[C@@H](Cc2ccccc2)C[C@H](C)C(=O)O)c(C)s1
Return: 25.1% (inactive)

Enquiry: What value of growth has been reported for the following compound? Oc1ccc2c3c1OC1[C@@H](O)CC[C@@]4(O)[C@@H](C2)N(CC2CCC2)CC[C@]314 (stereo partly drawn)
Return: 103% (inactive)

Enquiry: Which growth value belongs to COc1ccc(/C=C\c2cc(OC)c(OC)c(OC)c2)cc1OCC(=O)Nc1nc2ccc(OC(F)(F)F)cc2s1 ?
Return: 22.8% (inactive)

Enquiry: Recorded growth for COC(=O)C1CCC(NC(=O)c2csc([C@@H](C[C@H](C(C)C)N(C)C(=O)[C@@H](NC(=O)[C@H]3CCCCN3C)C(C)C)OC(C)=O)n2)CC1 (stereo partly drawn) , please?
Return: 25.7% (inactive)

Enquiry: Request the reported growth associated with c1cnc2[nH]cc(-c3csc(-c4cn(CCCCN5CCCCC5)c5ccccc45)n3)c2c1
Return: 52.5% (inactive)

Enquiry: For O=C(O)C(O)C(O)C1[O][Sb]([c]2ccc([N+](=O)[O-])cc2)[O]C1CO (stereo not drawn) , what is its reported growth?
Return: 99.2% (inactive)

Enquiry: # get_value(readout='growth', item= CC[C@@H]1[C@@H](C)O[C@@](O)([C@@H](C)[C@H](O)[C@H](C)[C@H]2OC(=O)/C=C/C=C/[C@H](C)[C@@H]([C@@H](C)[C@@H](O)[C@H](C)[C@@]3(O)C[C@@H](O[C@H]4C[C@@H](O)[C@H](O)C(C)O4)[C@H](CC)[C@@H](C)O3)OC(=O)/C=C/C=C/[C@@H]2C)C[C@H]1O[C@@H]1C[C@@H](O)[C@H](O)C(C)O1 (stereo partly drawn) )
Return: -65.2% (active)

Enquiry: For the compound shown here, C[n+]1c(/C=C/c2ccc(N(CCCl)CCCl)cc2)sc2ccccc21 , give the reported growth.
Return: 27.5% (inactive)

Enquiry: Entry O=C1Nc2ccccc2C2c3cccn3-c3ccccc3CN12 (stereo not drawn) has what growth?
Return: 55.2% (inactive)

Enquiry: Query: growth; subject: C[C@@H]1C[C@@]2(C)[C@@H](CC[C@@H]3[C@@H]2CC[C@]2(C)C(=O)CC[C@@H]32)CC1=O
Return: 137% (inactive)

* * *

# System: HCT-15 colon
# test_method_notes: NCI-60 one-dose screen, 48 h (100 = growth as untreated, 0 = no growth, -100 = all killed)
# experimental_parameters: 10 µM unless noted
About 83,000 compounds went through this panel and 20% of them were active in at least one assay; those are over-represented in the sample as a whole.
Using growth as the sorting value, the categories are A: < 10%; B: ≥ 10% and < 90%; C: ≥ 90%

As a guide, the following entries are already answered.
CC[C@H](C)[C@H](NC(=O)[C@H]1CCCCN1C)C(=O)N(C)[C@H](C[C@@H](O)c1nc(C(=O)N[C@@H](Cc2ccccc2)C[C@H](C)C(=O)O)cs1)C(C)C    C
C[n+]1c(/C=C/c2ccc(N(CCCl)CCCl)cc2)sc2ccccc21    B
N#C[S-].[Au+].c1ccc(CN2[CH-]N(Cc3ccccc3)C(c3ccccc3)=C2c2ccccc2)cc1    B
ClC1=C(Cl)C(Cl)(C2(Cl)C(Cl)=C(Cl)C(Cl)=C2Cl)C(Cl)=C1Cl    A
O=C(Nc1ccc(Br)cc1)c1cc(Br)cc(Br)c1O    A
CCOc1ccc(/C=C/[N+](=O)[O-])cc1    B
CCCCCCCCCCCCCCCCCC1OC[C@@H](COC(=O)O[C@@H](C(=O)O[C@H]2C[C@@]3(O)[C@@H](OC(=O)c4ccccc4)[C@@H]4[C@]5(OC(C)=O)CO[C@@H]5C[C@H](O)[C@@]4(C)C(=O)[C@H](OC(C)=O)C(=C2C)C3(C)C)[C@@H](NC(=O)c2ccccc2)c2ccccc2)O1 (stereo not given in full)    C
CN(C)C(=O)Oc1ccccc1-c1ccccc1    C

Enquiry: Input NC(=O)c1c(Br)n(C2OC(CO)C(O)C2O)c2ncnc(N)c12 (stereo not given) ; output its category
Return: A
